So I've got a bunch of molecules here, and I need their GFP response relative to DMSO values.
# Measurement Protocol: LAP4-GFP expression modulators in yeast, confirmation, cell-based, cherry picks, flow cytometry, mother/daughter gates (AID 2271);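 also: ratio of sample to DMSO plate mean so 100% equals DMSO level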
# Measurement Context: S. cerevisiae LAP4-GFP strain, 3 h, measured here: mother cell gate response, at 10 µM, stronger effect = higher value, 100 means same as DMSO control
Give bare numbers, in %.

Please report the recorded GFP response relative to DMSO for OCC[n+]1ccc(/C=C/c2c[nH]c3ccccc23)cc1 .
141

Go through the items and report each one's GFP response relative to DMSO.
1. Cc1cc(N=Nc2ccccc2C(=O)O)c(C)c(C)c1O
2. Cc1ccc(C(=O)N2c3ccccc3NC(=O)C2C)cc1 (stereo not given)
3. Nc1cccnc1S(=O)(=O)c1ccccc1
4. CC1CCCCN1S(=O)(=O)c1ccc(C(=O)Nc2nnc(-c3ccccc3Cl)o2)cc1 (stereo not given)

[108, 105, 95.2, 91.9]

Batch of 6 molecules: report GFP response relative to DMSO for each.
1. COc1cccc2c1Oc1ncccc1N(C(=O)CCC(=O)NCc1ccccc1)C2
2. CCOC(=O)C1(Cc2ccccc2Cl)CCN(C(=O)CCn2ccnc2C)CC1
3. Cc1ccc(C)c(NC(=O)c2ccccc2O)c1
4. Cc1ccc(S(=O)(=O)NCC23C=CC(O2)C2C(=O)N(c4ccccc4)C(=O)C23)cc1 (stereo not given)
5. CCc1nn2c(N3CCOCC3)cc(C)nc2c1-c1ccc(F)cc1
6. O=C(N/N=C\c1ccc(F)cc1)c1cc(OCC(F)(F)F)ccc1OCC(F)(F)F

[97.3, 99.5, 112, 97.2, 104, 99.5]

// each molecule listed below needs its GFP response relative to DMSO
1. COc1cccc2c1Oc1ncccc1N(C(=O)CCC(=O)NCc1ccc(C)cc1)C2
2. CCOc1ccc(-c2noc(-c3cccnc3)n2)cc1OC
3. O=C(NNC(=S)NC(=O)C12CC3CC(CC(C3)C1)C2)c1ccncc1

[96.2, 98.3, 136]

Please supply GFP response relative to DMSO for each of the following items, keeping them in order.
1. O=C(Nc1nc(-c2ccccc2)cs1)c1cccc([N+](=O)[O-])c1
2. CCc1c(C)c2cc(Cl)c(O)c(CN(C)C)c2oc1=O
3. O=C(CN1CCN(Cc2ccccc2Cl)C1=O)NC1CCCCCCC1
4. CC(C)(C)c1ccc(C(=O)N/N=C/c2cccc(Cl)c2)cc1
5. O=C1ON=C(c2ccccc2)/C1=C/c1ccco1
6. Cc1ccc2c(nc3s/c(=C\c4ccc(-c5ccccc5C(=O)O)o4)c(=O)n32)c1C
7. CC(C)(C)n1nc(-c2ccc(Cl)cc2)c2c(N)ncnc21
8. O=C(N/N=C/c1c(Cl)cccc1Cl)c1cccc(F)c1

95.2
93.4
95.1
102
161
259
195
93.4

Provide reported GFP response relative to DMSO for each item, in the same order as listed.
1. O=C(Oc1oc(-c2ccco2)nc1C=Nc1ccccc1)c1ccco1
2. COC(=O)c1ccccc1NC(=O)c1nc(S(=O)(=O)Cc2ccccc2)ncc1Cl
3. Cc1ccc(S(=O)(=O)c2ncccc2N)cc1
4. N#C/C(=C\c1c(N(Cc2ccccc2)Cc2ccccc2)nc2ccccn2c1=O)C(N)=O
5. O=C(C1CCN(Cc2nc(Cc3cccc(F)c3)no2)CC1)N1CCOCC1

1. 175
2. 92.1
3. 98.3
4. 102
5. 97.2

For the 7 molecules below, give their GFP response relative to DMSO values.
1. O=C(Nc1nc(-c2ccccc2)cs1)c1cccs1
2. CC(=O)Nc1ccc(S(=O)(=O)NC(CC(=O)NCCC2=CCCCC2)C(C)C)cc1 (stereo not given)
3. O=C(Oc1c(Cl)cc(Cl)c2cccnc12)c1cccc([N+](=O)[O-])c1
4. COc1cc(NC(=O)c2ccccc2[N+](=O)[O-])ccc1NC(=O)c1cc2ccccc2o1
5. CS(=O)(=O)N1N=C(c2ccco2)CC1c1ccc(Br)cc1 (stereo not given)
6. CCCC(=O)c1ccc(N2CCN(C(=O)c3ccc(Br)cc3)CC2)c(F)c1
7. CC1=C(C)/C(=N\OS(=O)(=O)c2ccccc2)C=CC1=O

1. 106
2. 96.1
3. 236
4. 97.3
5. 103
6. 99.3
7. 236

Could you tell me GFP response relative to DMSO for each of these molecules? They are listed below.
1. CCCCCCCCn1c(=O)c(C(=O)OCC)c(O)c2ccccc21
2. Cc1ccc(C(=O)NNC(=S)NC(=O)COc2ccccc2)cc1

1. 92.9
2. 203

// each molecule listed below needs its GFP response relative to DMSO
1. C=CCn1cc(/C=C/c2cc[n+](C)cc2)c2ccccc21
2. COc1ccc2c(c1)c(C(C)=O)c(C)n2-c1ccccc1OC
3. CN(CCCS(=O)(=O)[O-])c1ccc(/C=C/c2ccc3ccccc3[n+]2C)cc1

[108, 101, 104]

The measured values listed here are drawn from PubChem BioAssay.
